The reported measurements were obtained from paper PMC6156383.

- SYSTEM: UniProt P41143
- Sequence (P41143 whole entry): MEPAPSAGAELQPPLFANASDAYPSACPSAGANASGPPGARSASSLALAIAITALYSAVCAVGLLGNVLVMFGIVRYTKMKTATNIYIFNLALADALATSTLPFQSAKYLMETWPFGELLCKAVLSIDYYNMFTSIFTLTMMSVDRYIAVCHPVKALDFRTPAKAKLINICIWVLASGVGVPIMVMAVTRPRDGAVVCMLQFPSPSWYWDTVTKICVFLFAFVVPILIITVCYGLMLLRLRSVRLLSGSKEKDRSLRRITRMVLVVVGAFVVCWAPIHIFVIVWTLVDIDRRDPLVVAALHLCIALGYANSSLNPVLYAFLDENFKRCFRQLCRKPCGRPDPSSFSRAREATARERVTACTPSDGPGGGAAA
- EXPERIMENT NOTES: [35S]GTPγS binding stimulation (agonist), CHO membranes
- PARTICULARS: [35S]GTPγS stimulation; * = too little stimulation (if < 15% an EC50 was not always determined)
ATTRIBUTE MEASURED: EC50
Reply with a number, then the unit it belongs to.

Solved cases (2 shown):
STRUCTURE SMILES STRING | RECORDED VALUE
COc1cccc(CC(=O)O[C@@]23CCC(=O)[C@@H]4Oc5c(O)ccc6c5[C@@]42CCN(CC2CC2)C3C6)c1 | 9.9 nM
Cc1ccc(CC(=O)O[C@@]23CCC(=O)[C@@H]4Oc5c(O)ccc6c5[C@@]42CCN(CC2CC2)[C@@H]3C6)cc1 | 3.8 nM

Task: Return reported EC50; argument: Cc1cccc(CC(=O)O[C@@]23CCC(=O)[C@@H]4Oc5c(O)ccc6c5[C@@]42CCN(CC2CC2)[C@@H]3C6)c1
Result: 21.3 nM
